System: albumin (secreted, cellular toxicity marker)
assay_notes: Albumin (in vitro cellular tox marker), multiplex assay, PHH
Format: cell-based
condition_parameters: human, HepG2.2.15-derived HBV GT D, MOI 40, read-out: In vitro tox albumin IC50 (μM) Median
Excerpt: Fresh primary human hepatocytes (PXB-PHH) harvested from humanized mice (uPA/SCID mice)—herein called PHH—were obtained from PhoenixBio Co., Ltd (Japan). […] A custom, Luminex-based multiplex assay that simultaneously measured HBeAg, albumin, and HBsAg was developed by Radix BioSolutions (Georgetown, Tex.). […] Samples were read on FlexMAP 3D (Luminex) and analyzed by Genedata software.
quantity: IC50 at 7 days (µM)
Answers are plain numbers, in µM.

Q) Please give the measured IC50 at 7 days for this compound: O=C(NC(CO)CO)c1c[nH]c2ncc(C3CC3)nc12
A) 21.1
